Assay system Human immunodeficiency virus type 1 protease (Human immunodeficiency virus 1); read-out recorded as Ki.
measured_quantity: Ki (nM)

Reference set (2 entries):
[in] Given the molecule COc1ccc(CN[C@@H](C(=O)N[C@H](C(=O)NCc2ccc(OC)cc2O)C(C)C)[C@H](O)[C@H](Cc2ccccc2)NC(=O)[C@@H](NC(=O)OCc2ccccc2)C(C)C)cc1 , what is its reported Ki?
[out] 14.1

[in] Consider the molecule shown here: CCOc1ccc(CN[C@@H](C(=O)N[C@H]2c3ccccc3CC2O)[C@H](O)[C@H](Cc2ccccc2)NC(=O)[C@@H](NC(=O)OCc2ccccc2)C(C)(C)C)cc1 (some centres undefined) What is its recorded Ki?
[out] 10

(P) CC(C)(C)[C@H](NC(=O)OCc1ccccc1)C(=O)N[C@@H](Cc1ccccc1)[C@@H](O)[C@@H](NCc1ccc(CNC(=O)OCc2ccccc2)cc1)C(=O)N[C@H]1c2ccccc2CC1O (some centres undefined)
(Q) CC(C)[C@H](NC(=O)OCc1ccccc1)C(=O)N[C@@H](CCc1ccccc1)[C@@H](O)[C@@H](NCc1ccc(Cl)cc1)C(=O)N[C@H](C(=O)NCc1nc2ccccc2[nH]1)C(C)C
[in] Determine, for P and Q , which has the greater value of Ki. Give the label under which the chosen entry appears.
[out] Q

* * *

# tested_on: Human immunodeficiency virus type 1 protease (Human immunodeficiency virus 1)
measured_quantity: Ki (nM)

Reference set, count: 3
[in] Please state recorded Ki (tested on Human immunodeficiency virus type 1 protease (Human immunodeficiency virus 1)) of CC(C)[C@H](NC(=O)[C@H](NCc1ccccc1)[C@H](O)[C@H](Cc1ccccc1)NC(=O)[C@@H](NC(=O)N(C)c1ccccc1)C(C)(C)C)C(=O)NCc1ccccc1
[out] 646

[in] Human immunodeficiency virus type 1 protease (Human immunodeficiency virus 1) / Ki / COc1ccc(CN[C@@H](C(=O)N[C@H](C(=O)NCc2ccc(OC)cc2OC)C(C)C)[C@H](O)[C@H](Cc2ccccc2)NC(=O)[C@@H](NC(=O)OCc2ccccc2)C(C)C)cc1 : value?
[out] 4.17

[in] I'm curious: which Ki was measured for CC(C)[C@H](NC(=O)[C@H](NCc1ccc(Cl)cc1)[C@H](O)[C@@H](N)Cc1ccccc1)C(=O)NCc1nc2ccccc2[nH]1 tested on Human immunodeficiency virus type 1 protease (Human immunodeficiency virus 1)?
[out] 182

(A) CC(C)(C)OC(=O)N[C@@H](Cc1ccccc1)[C@@H](O)[C@@H](NCc1ccc(OCCN2CCOCC2)cc1)C(=O)N[C@H]1c2ccccc2CC1O (stereo partly specified)
(B) CC(C)[C@H](NC(=O)[C@H](NCc1ccccc1)[C@H](O)[C@H](Cc1ccccc1)NC(=O)[C@@H](NC(=O)CCc1ccc(O)cc1)C(C)(C)C)C(=O)NCc1ccccc1
[in] For the pair A and B , which member has the lower Ki number? Please reply using the label of the selected record.
[out] B

* * *

# tested_on: Human immunodeficiency virus type 1 protease (Human immunodeficiency virus 1)
pKi: −log10 of the molar value.
measured_quantity: pKi

[in] So what does the record say about pKi for CC(C)[C@H](N)C(=O)C[C@@H](Cc1ccccc1)[C@@H](O)[C@H]1CCc2ccc(cc2)OCCOCCOCCCOCCNC(=O)[C@H](C(C)C)CC1=O ?
[out] 8.12

(P) CC(C)[C@H](NC(=O)[C@H](NCc1ccccc1)[C@H](O)[C@H](Cc1ccccc1)NC(=O)[C@H](CC(N)=O)NC(=O)c1ccc2ccccc2n1)C(=O)NCc1ccccc1
(Q) CC(C)C[C@H](NC(=O)[C@H](NCc1ccccc1)[C@H](O)[C@H](Cc1ccccc1)NC(=O)[C@@H](NC(=O)OCc1ccccc1)C(C)C)C(=O)NCc1ccccc1
[in] Given P and Q , report the one with the higher recorded pKi. Field: selected label. Fill in the label of the entry you choose.
[out] Q
(Q: 7.96, P: 7.62)

(P) CCOC(=O)[C@H](NCc1ccc(CNCc2ccccc2)cc1)[C@H](O)[C@H](Cc1ccccc1)NC(=O)[C@@H](NC(=O)OCc1ccccc1)C(C)C
(Q) COc1ccc(CN[C@@H](C(=O)N[C@H](C(=O)NCc2nc3ccccc3[nH]2)C(C)C)[C@H](O)[C@@H](N)Cc2ccccc2)cc1
(R) CC(C)(C)OC(=O)N[C@@H](Cc1ccccc1)[C@@H](O)[C@@H](NCc1ccc(CNC(=O)Nc2ccccc2)cc1)C(=O)N[C@H]1c2ccccc2CC1O (stereo partly specified)
[in] # rank_down: sort by pKi, max first List the labels, following the order given in the request.
[out] R, Q, P

Every entry's value here was drawn from ChEMBL document CHEMBL1128211.
